Quick reference: inhibition of the listed items.
Target: SARS-CoV-2 Main Protease (SARS-CoV-2)
Settings: 20.0 µM
Reply numerically in %, unit not repeated.

Please review the entries below; each comes with its answer.
{"Molecule": "Cc1ccncc1NC(=O)Cc1cccc(CO)c1", "Recorded number": 2.87}
{"Molecule": "Cc1ccc(CN2CCC(CNC(=O)Nc3cn(CC(C)C)c(=O)c4ccccc34)C2)cc1 (stereo unspecified)", "Recorded number": -3.01}
{"Molecule": "O=C(Cc1c[nH]c2ncccc12)NCc1cc(Cl)ccn1", "Recorded number": 2.58}

Requested field: inhibition. Item: C=CC(=O)N(c1ccc(C(C)(C)C)cc1)C(C(=O)NCCc1cccc(F)c1)c1cccnc1 (stereo unspecified) 63.3

Need inhibition of Cc1ccncc1NC(=O)C(C)c1cccc(C#N)c1 (stereo unspecified) , thanks. 35.4

Entry O=C(CCl)N1CC2CC1CN2Cc1cccc(Cl)c1 (stereo unspecified) : reported inhibition = ? 82.2

Can you share its inhibition? I mean this molecule: O=C(Cn1c(=O)[nH]c2ccccc21)Nc1cccc(Cl)c1 -4.28

* * *

Molecular target: SARS-CoV-2 Main Protease (SARS-CoV-2)
Details: 50.0 µM
Reported endpoint: inhibition (%)
Answer format: numeric, % implied, no suffix.

Example results:
{"Compound": "CCOc1ccccc1OC1CCN(C(=O)c2cc(=O)[nH]c3ccc(F)cc23)C1 (stereo not given)", "Reported endpoint": "inhibition", "Recorded number": 0}
{"Compound": "O=C(NCc1ccc(Cl)cc1CN1CCN(C(=O)CCl)CC1)[C@@H]1CCCOC1 (stereo in doubt)", "Reported endpoint": "inhibition", "Recorded number": 100}
{"Compound": "O=C(CCl)N1CCN(S(=O)(=O)c2c(F)cccc2F)CC1", "Reported endpoint": "inhibition", "Recorded number": 99.2}
{"Compound": "CC(C)C[C@@H]1CN(C(=O)CCl)CCN1Cc1cccc(Cl)c1 (stereo in doubt)", "Reported endpoint": "inhibition", "Recorded number": 100}
{"Compound": "Cc1nc(-c2cccc(CNC(=O)Nc3cccc(CN4CCCC4=O)c3)c2)n[nH]1", "Reported endpoint": "inhibition", "Recorded number": 0}
{"Compound": "CCCN(C(=O)Cc1cccc(Cl)c1)c1cccnc1", "Reported endpoint": "inhibition", "Recorded number": 36.2}
{"Compound": "Cc1csc(C(=O)N/N=C/c2cccnc2)c1N", "Reported endpoint": "inhibition", "Recorded number": -6.32}
{"Compound": "COc1cccc(NC(=O)Nc2cccc(C#N)c2)c1", "Reported endpoint": "inhibition", "Recorded number": 2.48}

# lookup: inhibition of CC(NC(=O)c1ccccc1OCC(N)=O)c1cnn(C)c1 (stereo not given) 0

inhibition for Cc1ccccc1NC1CCN(c2ccc(S(N)(=O)=O)cc2)CC1 ? 37.6

* * *

Target: SARS-CoV-2 Main Protease (SARS-CoV-2)
Details: 20.0 µM
Listing: inhibition of selected compounds
Report the value in % with no unit label.

Past entries and their recorded results:
{"Compound": "N#Cc1ccnc(CNC(=O)Cc2c[nH]c3ncccc23)c1", "System tested": "SARS-CoV-2 Main Protease (SARS-CoV-2)", "Unit of measurement": "%", "Recorded number": -23.2}
{"Compound": "C=CC(=O)N(c1ccc(C(C)(C)C)cc1)C(C(=O)NC(C)(C)C)c1cccnc1C (configuration not stated)", "System tested": "SARS-CoV-2 Main Protease (SARS-CoV-2)", "Unit of measurement": "%", "Recorded number": -1.34}
{"Compound": "O=C(Cc1c[nH]c2ncccc12)N(Cc1c(F)cccc1Cl)c1ccc2[nH]c(=O)[nH]c2c1", "System tested": "SARS-CoV-2 Main Protease (SARS-CoV-2)", "Unit of measurement": "%", "Recorded number": 6.29}
{"Compound": "CS(=O)(=O)c1ccc(N2CCNCC2)cc1", "System tested": "SARS-CoV-2 Main Protease (SARS-CoV-2)", "Unit of measurement": "%", "Recorded number": -2.52}
{"Compound": "CC(C)Cn1cc(NC(=O)NCCC2=CCCCC2)c2ccccc2c1=O", "System tested": "SARS-CoV-2 Main Protease (SARS-CoV-2)", "Unit of measurement": "%", "Recorded number": 25.7}

What measured inhibition is associated with C=CC(=O)N(c1ccc(N(C)C)c(C)c1)C(C(=O)Nc1ccc(Cl)cc1)c1cccnc1 (configuration not stated) on SARS-CoV-2 Main Protease (SARS-CoV-2)? 4.26

inhibition of COc1ccccc1OCC(C)NC(=O)c1cc(=O)[nH]c2ccc(F)cc12 (configuration not stated) on SARS-CoV-2 Main Protease (SARS-CoV-2)? 42

Please provide the recorded inhibition for CNCCN(C)C(=O)C(=O)N1Cc2ccccc2C(c2ccccc2)C1 (configuration not stated) , tested on SARS-CoV-2 Main Protease (SARS-CoV-2). -1.83

SARS-CoV-2 Main Protease (SARS-CoV-2) / inhibition / Cn1cnc(CN(C(=O)c2cnnn2-c2ccccc2)c2ccc(OCc3ccccc3)cc2)c1 : value? -1.63

What measured inhibition is associated with CS(=O)(=O)N1CCN(C(=O)CCl)CC1c1ccccc1 (configuration not stated) on SARS-CoV-2 Main Protease (SARS-CoV-2)? 64.6

Which measured inhibition belongs to C=CC(=O)N(c1ccc(C(C)(C)C)cc1)C(C(=O)NCCc1cccc(F)c1)c1cncc(Cl)c1 (configuration not stated) , tested on SARS-CoV-2 Main Protease (SARS-CoV-2)? 24.2

Notebook entry, SARS-CoV-2 Main Protease (SARS-CoV-2) assay: inhibition of Cc1ccncc1NC(=O)Cc1ccccc1 = ? 8.19
